- PROCEDURE_SUMMARY: Plasma concentrations and TK parameters, 72-hour continuous intravenous infusion
- Type: in vivo, Sprague-Dawley rats
- REPORTED_CONDITIONS: male, Sprague-Dawley, rat, plasma, iv, 100 mg/kg, male Sprague-Dawley rats; 72-hour intravenous infusion at 100 mg/kg; time 84 h; read-out: Plasma concentration, individual animal
RECORDED_METRIC: concentration at 84 h (ng/mL)
Answer in ng/mL, number only, no unit symbol.

// query concentration at 84 h value for entry O=C(O)c1cc(-c2ccc(C3CCNCC3)cc2)c2ccc(-c3ccc(C(F)(F)F)cc3)cc2c1
2650

###

- PROCEDURE_SUMMARY: Plasma concentrations during 24-hour continuous intravenous infusion
- Format: in vivo, Sprague-Dawley rats
- REPORTED_CONDITIONS: male, Sprague-Dawley, rat, plasma, iv, 30 mg/kg, male Sprague-Dawley rats; 24-hour intravenous infusion at 30 mg/kg; time 24 h; read-out: Plasma concentration, individual animal
- Method: The safety and pharmacokinetics of PPTN (KB-1801) in rats receiving continuous intravenous injections of SBECD-containing solutions were analyzed. Three cohorts of six male and six female rats each were given continuous intravenous infusion of PPTN (KB-1801) at 10 mg/kg/day, 30 mg/kg/day or 100 mg/kg/day in a dosing solution containing PPTN at 0.25 mg/mL, 0.75 mg/mL or 2.5 mg/mL and SBECD at about 3.8%. Dosing volume was 40 mIkg/day. [table]
RECORDED_METRIC: concentration at 24 h

So what does the record say about concentration at 24 h for O=C(O)c1cc(-c2ccc(C3CCNCC3)cc2)c2ccc(-c3ccc(C(F)(F)F)cc3)cc2c1 ?
2880 ng/mL
